pKi: −log10 of the molar value.
pKi values recorded for CHK1 (kinase domain) (Homo sapiens)
Measure name: pKi

[I] CC(C)Oc1ccc2c(c1)ncn2-c1cncc(N[C@@H]2CCCNC2)n1
[II] Cc1cn2c(-c3cncc(N[C@@H]4CCCNC4)n3)cnc2s1
[III] FC(F)(F)c1ccc2ncc(-c3cncc(N[C@@H]4CCCNC4)n3)n2c1
*Q* Rank descending by pKi: all 3 compounds from above. Could you list the labels in the order requested?
*A* II, I, III

----------
pKi values recorded for CHK1 (kinase domain) (Homo sapiens, UniProt O14757)
pKi: −log10 of the molar value.
Measure name: pKi

Consider the reported pKi for these compounds:
{"Compound": "CCc1cn2c(-c3cncc(N[C@@H]4CCCN[C@@H]4C)n3)cnc2s1 [Example 108]", "pKi": 7.99}
{"Compound": "FC[C@@H]1C[C@@H](Nc2cncc(-c3cnc4ccccn34)n2)CN1", "pKi": 7.10}

[P] C[C@H]1CC[C@@H](Nc2cncc(-c3cnc4ccc(F)cn34)n2)CN1
[Q] c1cc2c(cc1OCC1CC1)ncn2-c1cncc(N[C@@H]2CCNC2)n1
[R] CC(C)c1cn2c(-c3cncc(N[C@@H]4CCCN[C@H]4C)n3)cnc2s1
*Q* Order by pKi, ascending. Could you list the labels in the order requested?
*A* P, R, Q
(P: 7.05, R: 7.90, Q: 8.48)
